Data origin, for the record: PubChem BioAssay (NCI)

- Tested on: HCC-2998 colon
- assay: NCI-60 one-dose screen, 48 h
- condition.summary: 10 µM unless noted
This is part of a sample that, as a whole, favours compounds with a hit. Of some 83,000 tested, about 20% had one in any assay. Calls of active or inactive are those of the source. Rule for the calls: active = growth percent below 10; inactive = the rest.
// classify into y for active, n for inactive

- CC(C)(C)c1cc(C[P+](c2ccc(Cl)cc2)(c2ccc(Cl)cc2)c2ccc(Cl)cc2)cc(C(C)(C)C)c1O: n

Recorded test outcome, item `O=C(N/N=C\c1ccc(-c2ccc(Br)cc2)o1)c1cc2oc(-c3cccc(C(F)(F)F)c3)cc2[nH]1` n

----------
- Test system: HCT-15 colon
- assay: NCI-60 one-dose screen, 48 h
- condition.summary: 10 µM unless noted
- Experimental: Growth inhibition of the HCT-15 human tumor cell line is measured as a screen for anti-cancer activity. Cells are grown in 96 well plates and exposed to the test compound for 48 hours. Compounds are tested at a single concentration, which is 10^-5 M for most compounds. The reported endpoint is percent growth (GI% or GIPRCNT), where numbers from 0 - 100% represent growth inhibition, and numbers from -100% - 0 represent cell death. For example, a value of 40 represents 60% growth inhibition. […]
About 83,000 compounds went through this panel and 20% of them were active in at least one assay; those are over-represented in the sample as a whole. Active and inactive are the calls of the source. The calls were made as follows: active = growth percent below 10; inactive = the rest.
The reply should name one outcome from active, inactive

// below: answered molecules
- O=C1C=C(OCC=C(C(F)(F)F)C(F)(F)F)c2ccccc2C1=O: inactive
- COc1cc2ncnc(-n3ncc4cc(NC(=O)Nc5ccccc5)ccc43)c2cc1OC: inactive
- NCCCOc1cc2ccccc2cc1C(=O)Nc1ccc(Cl)cc1OC(=O)c1cc2ccccc2cc1OCCCN: active
- Cc1ccc(NCc2cn(-c3ccc(C(=O)O)cc3)nc2-c2ccc(C(=O)O)cc2)cc1: inactive

What call does the record list for `COc1ccc(Cn2cc3c(c2-c2ccc(OC)cc2)CCc2cnoc2-3)cc1` ? inactive
